Record set: pIC50 | NS3 (Hepatitis C virus, UniProt A3EZJ3) | literature, multiple sources.
# reply with the number alone; pIC50 is -log10 of concentration in mol/L

Prompt: Report pIC50 for CC[C@H](NC(=O)[C@@H]1C[C@@](C)(NC(=O)Nc2ccccc2OC)c2ncc(NCc3cccc(C(F)(F)F)c3)c(=O)n21)B1OC2C3CC(C[C@]2(C)O1)C3(C)C (stereo not given in full) please.
Response: 6.44

Prompt: Would you kindly repeat that for C=CCNC(=O)C(=O)C(CC=C)NC(=O)[C@H]1CCCN1C(=O)[C@@H](NC(=O)[C@@H](NC(=O)[C@H](CCC(=O)O)NC(=O)[C@@H](N)CC(=O)O)C(C)C)C(C)C (stereo not given in full) ?
Response: 6.47

Prompt: // repeat for CC[C@H](NC(=O)[C@H](CC1CCCCC1)NC(=O)[C@@H](NC(=O)[C@H](CC(C)C)NC(=O)c1cnccn1)[C@@H](C)CC)C(=O)C(=O)NCS(=O)(=O)O and report
Response: 6.66

Prompt: Then this compound: CC[C@H](NC(=O)[C@H](CC1CCCCC1)NC(=O)[C@@H](NC(=O)[C@H](CC(C)C)NC(=O)c1cnccn1)[C@@H](C)CC)C(=O)C(=O)NCC(=O)NS(=O)(=O)c1ccccc1
Response: 5.05

Prompt: Also CC[C@H](NC(=O)[C@@H]1C[C@@](C)(NC(=O)Nc2ccc(Oc3ccccc3)cc2)c2ncc(NCc3cccc(C(F)(F)F)c3)c(=O)n21)B1OC2C3CC(C[C@]2(C)O1)C3(C)C (stereo not given in full) ?
Response: 5.32
